Test system: SF-539 CNS
Assay: NCI tumour cell line growth inhibition, 48 h
measure: TGI

- compound: "CN1CCC(CN2c3ccccc3Sc3ccccc32)C1 (stereo not given)"
  measured_on: "SF-539 CNS"
  experimental_value: "31.9 µM"
- compound: "CCOC(=O)c1cc(C)n(CN(CCO)Cn2nc(C(=O)OCC)cc2C)n1"
  measured_on: "SF-539 CNS"
  experimental_value: "33.6 µM"
- compound: "CC(CO)CCNc1ncnc2c1ncn2CCC(=O)O (stereo not given)"
  measured_on: "SF-539 CNS"
  experimental_value: "> 100 µM"
- compound: "Cn1cc(NC(=O)c2cc(NC(=O)CCCCCCCCCC(=O)Nc3cc(C(=O)Nc4cc(C(=O)NCCC(=N)N)n(C)c4)n(C)c3)cn2C)cc1C(=O)NCCC(=N)N"
  measured_on: "SF-539 CNS"
  experimental_value: "> 100 µM"
- compound: "COc1ccc(CNc2cnc3ccc(N)cc3n2)cc1OC"
  measured_on: "SF-539 CNS"
  experimental_value: "> 100 µM"
- compound: "CN/N=C(/C=C/c1ccccc1)C(C)C"
  measured_on: "SF-539 CNS"
  experimental_value: "> 100 µM"
- compound: "Cc1ccc(S(=O)(=O)NC2CCCCO2)cc1 (stereo not given)"
  measured_on: "SF-539 CNS"
  experimental_value: "> 100 µM"
- compound: "CCOC(=O)C1C(c2ccc3c(c2)OCO3)c2c([nH][nH]c2=O)CC1(O)OCC (stereo not given)"
  measured_on: "SF-539 CNS"
  experimental_value: "> 100 µM"
- compound: "Cc1ccc(I)cc1N=C=S"
  measured_on: "SF-539 CNS"
  experimental_value: "35.4 µM"
- compound: "CNC(=O)c1ccc(C(=O)NCCCCCN(O)C(=O)CCC(=O)NCCCCCN(O)C(=O)CCC(=O)NCCCCCN(O)C(C)=O)c(O)c1O"
  measured_on: "SF-539 CNS"
  experimental_value: "> 100 µM"

###

# GI50 per record follows
Test system: SF-268 CNS
Test: NCI tumour cell line growth inhibition, 48 h

- molecule: "Cn1cc(C2=C(n3ccc4ccccc43)C(=O)NC2=O)c2ccccc21"
  GI50: "> 25 µM"
- molecule: "COC(=O)c1ccc(C2SC(C)C(=O)N2NC(=O)C(O)c2ccccc2)cc1 (stereo not given)"
  GI50: "> 100 µM"
- molecule: "Cc1cccc(-n2cnc3cc(C(=O)N4CCCCC4)ccc32)c1"
  GI50: "> 100 µM"
- molecule: "COc1cc2nccc(Oc3ccc(NC(=O)C4(C(=O)Nc5ccc(F)cc5)CC4)cc3)c2cc1OC(=O)c1ccc(N)cc1"
  GI50: "1.63 µM"
- molecule: "O=C([CH-]C(=O)C(F)(F)F)c1ccccc1.O=C([CH-]C(=O)C(F)(F)F)c1ccccc1.[O]=[U+2]=[O]"
  GI50: "4.53 µM"

###

Tested on: OVCAR-8 ovarian
Test: NCI tumour cell line growth inhibition, 48 h
measure: TGI (µM)

- compound: "CN1CCC(CN2c3ccccc3Sc3ccccc32)C1 (stereo not given)"
  measure: "TGI"
  relation: "="
  experimental_value: 31.9
- compound: "CCCCCCCCn1ccc2cc(NC(=O)Cn3cc(CN4CCN(CC)CC4)nn3)ccc21"
  measure: "TGI"
  relation: "="
  experimental_value: 5.83
- compound: "Cc1cc(S(=O)(=O)N/C(=C(\\C#N)C(=O)c2ccccc2)[n+]2ccc(N(C)C)cc2)c([S-])cc1Cl"
  measure: "TGI"
  relation: ">"
  experimental_value: 100
- compound: "COc1ccc(CNc2cnc3ccc(N)cc3n2)cc1OC"
  measure: "TGI"
  relation: ">"
  experimental_value: 100
- compound: "CCN(CC)c1ccc2cc(-c3nc4ccccc4n3C)c(=O)oc2c1"
  measure: "TGI"
  relation: ">"
  experimental_value: 100
- compound: "COC(=O)c1ccc(C2SC(C)C(=O)N2NC(=O)C(O)c2ccccc2)cc1 (stereo not given)"
  measure: "TGI"
  relation: ">"
  experimental_value: 100
- compound: "COC(=O)C(C)NP(=O)(OCc1ccc(Cn2cnc3c(N)ncnc32)cc1)Oc1ccccc1 (stereo not given)"
  measure: "TGI"
  relation: ">"
  experimental_value: 100
- compound: "COc1ccc(/C=C/C(=O)c2sc(Nc3ccc([N+](=O)[O-])cc3)nc2C)cc1"
  measure: "TGI"
  relation: ">"
  experimental_value: 100
- compound: "CN(C)CCNc1ccc2nnn3c4ccc(O)cc4c(=O)c1c23"
  measure: "TGI"
  relation: "="
  experimental_value: 16.8
- compound: "CCCCCCC(O)(c1ccc(F)cc1)C(CN1CCOCC1)c1ccccc1 (stereo not given)"
  measure: "TGI"
  relation: "="
  experimental_value: 34.8
